System: Periplaneta americana
Experiment: Insecticidal activity against adult male Periplaneta americana (American cockroach) dosed through injection into abdomen assessed as mortality measured 24 hr post dose pre-treated with 50 ug metabolic inhibitor PB 1 hr before compound injection
Type: functional
Binary call on log(1/MLD) with cut-off 8: strictly below means met, and equality or higher means not met.

Quick check: log(1/MLD) of CCCCCOc1cc(CN2CCN/C2=N\[N+](=O)[O-])cnc1Cl under 8?
met

Is log(1/MLD) of COc1cc(CN2CCN/C2=N\[N+](=O)[O-])cnc1Cl strictly below 8?
not met

Field: below-cutoff. Rule: recorded log(1/MLD) strictly less than 8. Subject: CCCOc1cc(CN2CCN/C2=N\[N+](=O)[O-])cnc1Cl
met

Would you kindly look at the next entry?
Dear colleague, could you confirm whether log(1/MLD) of O=[N+]([O-])/N=C1\NCCN1Cc1cnc(Cl)c(Cl)c1 [5-CHLOROIMIDACLOPRID] falls below 8? Thanks.
not met
